- ASSAY_DETAILS: Toxicity against nu/nu mouse
- Assay type: organism-based
- PARTICULARS: in vivo
OUTCOME_MEASURE: MTD
Please answer in the form of a number followed by its unit of measurement.

So what's the measured MTD for this one? `COc1ncc(-c2cc3c(C)nc(N)nc3n([C@H]3CC[C@H](OCO)CC3)c2=O)cc1F`
10 mg/kg
